Reference source for all entries: patent US20190225687A1

# test.target: T1, human LAG3 of the LAG3 and MHC II binding assay kit (Cisbio, 64ICP03PEG) (human, UniProt P18627 23-450, limits assumed)
# T1 construct: Bought kit reagent
# T1 sequence (looked up): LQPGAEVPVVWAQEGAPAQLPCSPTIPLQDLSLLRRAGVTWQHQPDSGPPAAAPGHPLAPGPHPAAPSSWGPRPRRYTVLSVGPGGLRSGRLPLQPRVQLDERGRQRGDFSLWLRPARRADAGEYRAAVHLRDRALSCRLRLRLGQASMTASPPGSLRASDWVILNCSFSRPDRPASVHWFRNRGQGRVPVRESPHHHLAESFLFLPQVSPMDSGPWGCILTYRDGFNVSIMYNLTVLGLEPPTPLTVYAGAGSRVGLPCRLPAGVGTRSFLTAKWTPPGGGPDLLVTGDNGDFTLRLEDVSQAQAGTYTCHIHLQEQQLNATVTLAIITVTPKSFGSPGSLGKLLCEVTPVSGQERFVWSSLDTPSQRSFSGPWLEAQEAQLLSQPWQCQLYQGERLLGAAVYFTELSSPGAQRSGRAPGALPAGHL
# run.description: TR-FRET LAG3/MHC II binding assay (Cisbio); blocks MHC II
measure: pIC50
The value called pIC50 is obtained by taking minus log10 of the concentration in mol/L.

Prompt: Suppose we examine the binder 147H 3508 (antibody, V domains shown) VH: EVQLVQSGAEVKKPGASVKVSCKASGYTFTNYWLGWIKQAPGQGLEWIGDIYPGGDYINYNEKFKGKATLTADTSISTAYMELSRLRSDDTAVYYCARPNLPKDHWGQGTTVTVSS VL: DIVMTQSPLSLPVTPGEPASISCRSSKSLLHSNAITYLYWYLQKPGQSPQLLIYQVSNLASGVPDRFSGSGSGTDFTLKISRVEAEDVGVYYCGQNLELPWTFGGGTKVEIK ; what pIC50 value has been reported?
Completion: 9.26
